# testSystem: PAR4 (Homo sapiens)
# Construct: expressed in transfected cells; host or cells: HEK293 PAR4 Clone 1.2A (BMS Arctic ID 383940)
# assayNotes: PAR4 FLIPR assay: calcium mobilization in PAR4-expressing HEK293 cells
# Type: cell-based
pIC50: −log10 of the molar value.
Values of pIC50 greater than or equal to 7 map to yes; values below map to no.

- inputSmiles: "Cc1cc(-c2cnc(-c3ccccc3)s2)c2ncc(OC(F)F)nc2c1"
  testSystem: "PAR4 (Homo sapiens)"
  classLabel: "no"
- inputSmiles: "CCNC(=O)c1cnc(-c2cc(C)cc3nc(OC)cnc23)s1"
  testSystem: "PAR4 (Homo sapiens)"
  classLabel: "no"
- inputSmiles: "Cc1cc(-c2ncc(-c3cccnc3)s2)c2ncc(OC(F)F)nc2c1"
  testSystem: "PAR4 (Homo sapiens)"
  classLabel: "yes"
- inputSmiles: "Cc1cc(-c2ncc(-c3ccn[nH]3)s2)c2ncc(OC(F)F)nc2c1"
  testSystem: "PAR4 (Homo sapiens)"
  classLabel: "yes"
- inputSmiles: "Cc1cc(-c2ncc(-c3ccccc3O)s2)c2ncc(OC(F)F)nc2c1"
  testSystem: "PAR4 (Homo sapiens)"
  classLabel: "yes"
- inputSmiles: "Cc1cc(-c2nc(C)c(-c3cc(F)ccc3O)s2)c2ncc(OC(F)F)nc2c1"
  testSystem: "PAR4 (Homo sapiens)"
  classLabel: "yes"
- inputSmiles: "Cc1cc(-c2ncc(-c3cc(Cl)ccc3O)s2)c2ncc(OC(F)F)nc2c1"
  testSystem: "PAR4 (Homo sapiens)"
  classLabel: "yes"
- inputSmiles: "Cc1cc(-c2nc(C(=O)N3CCC(CO)CC3)cs2)c2ncc(OC(F)F)nc2c1"
  testSystem: "PAR4 (Homo sapiens)"
  classLabel: "no"
- inputSmiles: "Cc1cc(-c2ncc(-c3cccc(Cl)c3O)s2)c2ncc(OC(F)F)nc2c1"
  testSystem: "PAR4 (Homo sapiens)"
  classLabel: "yes"
- inputSmiles: "Cc1cc(-c2ncc(-c3ccccc3)s2)c2ncc(OC(F)F)nc2c1"
  testSystem: "PAR4 (Homo sapiens)"
  classLabel: "yes"
- inputSmiles: "Cc1cc(-c2ncc(C)s2)c2ncc(OC(F)F)nc2c1"
  testSystem: "PAR4 (Homo sapiens)"
  classLabel: "no"
- inputSmiles: "COc1cnc2c(-c3nc(C(F)(F)F)c(C(=O)C4CCCCC4)s3)cc(C)cc2n1"
  testSystem: "PAR4 (Homo sapiens)"
  classLabel: "yes"
- inputSmiles: "COc1cnc2c(-c3ncc(-c4cc(O)c(F)c(F)c4)s3)cc(C)cc2n1"
  testSystem: "PAR4 (Homo sapiens)"
  classLabel: "yes"

###

# testSystem: PAR4 (Homo sapiens, UniProt Q96RI0)
# Construct: expressed in transfected cells; host or cells: HEK293 PAR4 Clone 1.2A (BMS Arctic ID 383940)
# Sequence (Q96RI0 18-385): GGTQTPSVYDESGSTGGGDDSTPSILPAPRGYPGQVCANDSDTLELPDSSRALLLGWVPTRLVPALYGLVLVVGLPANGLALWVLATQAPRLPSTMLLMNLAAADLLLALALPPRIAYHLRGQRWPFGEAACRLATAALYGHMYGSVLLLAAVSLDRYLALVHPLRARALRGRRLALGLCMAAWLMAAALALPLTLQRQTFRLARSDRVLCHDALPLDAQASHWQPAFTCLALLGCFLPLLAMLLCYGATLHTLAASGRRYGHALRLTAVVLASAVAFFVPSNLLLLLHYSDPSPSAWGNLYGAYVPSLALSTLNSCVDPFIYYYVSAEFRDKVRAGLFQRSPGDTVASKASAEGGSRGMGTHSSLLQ
# assayNotes: PAR4 FLIPR assay: calcium mobilization in PAR4-expressing HEK293 cells
# Type: cell-based
Listed next: entries and their corresponding log10(IC50).
readoutType: log10(IC50) (log10 of the value in nM)

- inputSmiles: "Cc1cc(-c2nc(C)c(-c3c(O)cccc3F)s2)c2ncc(OC(F)F)nc2c1"
  log10(IC50): 0.91
- inputSmiles: "Cc1cc(-c2ncc(-c3cccc4[nH]ccc34)s2)c2ncc(OC(F)F)nc2c1"
  log10(IC50): 2.91
- inputSmiles: "Cc1cc(-c2nc(C)c(-c3ccccc3O)s2)c2ncc(OC(F)F)nc2c1"
  log10(IC50): 0.77
- inputSmiles: "COc1ccc(-c2cnc(-c3cc(C)cc4nc(OC)cnc34)s2)nc1"
  log10(IC50): 2.74
- inputSmiles: "COc1ccc(NC(=O)c2csc(-c3cc(C)cc4nc(OC(F)F)cnc34)n2)cc1"
  log10(IC50): 3.36
- inputSmiles: "COCc1cnc2c(-c3ncc(-c4cc(F)ccc4O)s3)cc(C)cc2n1"
  log10(IC50): 0.76
- inputSmiles: "Cc1cc(-c2ncc(CO)s2)c2ncc(OC(F)F)nc2c1"
  log10(IC50): 3.30

###

# testSystem: PAR4 (Homo sapiens)
# Construct: expressed in transfected cells; host or cells: HEK293 PAR4 Clone 1.2A (BMS Arctic ID 383940)
# assayNotes: PAR4 FLIPR assay: calcium mobilization in PAR4-expressing HEK293 cells
# Assay type: cell-based
Binary label based on IC50 with cut-off 0.009 µM: below gives 1.0, not below gives 0.0.

- inputSmiles: "COc1cnc2c(-c3cc(-c4ccccc4)no3)cc(C)cc2n1"
  classLabel: 0.0
- inputSmiles: "COCc1cnc2c(-c3ncc(-c4ccccc4)s3)cc(C)cc2n1"
  classLabel: 1.0
- inputSmiles: "COCc1cnc2c(-c3ncc(-c4ccn[nH]4)s3)cc(C)cc2n1"
  classLabel: 1.0
- inputSmiles: "Cc1cc(-c2ncc(-c3c(O)cccc3F)s2)c2ncc(OC(F)F)nc2c1"
  classLabel: 1.0
- inputSmiles: "Cc1cc(-c2nnc(-c3ccccc3)s2)c2ncc(OC(F)F)nc2c1"
  classLabel: 0.0
- inputSmiles: "Cc1cc(-c2ncc(-c3cccc(F)c3O)s2)c2ncc(OC(F)F)nc2c1"
  classLabel: 1.0
- inputSmiles: "Cc1cc(-c2ncc(-c3cncc(O)c3)s2)c2ncc(OC(F)F)nc2c1"
  classLabel: 0.0
- inputSmiles: "COCc1cnc2c(-c3ncc(-c4cccc(O)c4)s3)cc(C)cc2n1"
  classLabel: 0.0
- inputSmiles: "Cc1cc(-c2nc(C)cs2)c2ncc(OC(F)F)nc2c1"
  classLabel: 0.0
- inputSmiles: "Cc1cc(-c2cnn(-c3ccccc3)c2)c2ncc(OC(F)F)nc2c1"
  classLabel: 0.0
- inputSmiles: "Cc1cc(-c2ncc(-c3ccc4cc[nH]c4c3)s2)c2ncc(OC(F)F)nc2c1"
  classLabel: 0.0
- inputSmiles: "Cc1cc(-c2ncc(-c3cccc4cc[nH]c34)s2)c2ncc(OC(F)F)nc2c1"
  classLabel: 0.0
- inputSmiles: "Cc1cc(-c2ncc(N3CCCCC3)s2)c2ncc(OC(F)F)nc2c1"
  classLabel: 0.0
- inputSmiles: "Cc1ccc(O)c(-c2cnc(-c3cc(C)cc4nc(OC(F)F)cnc34)s2)c1"
  classLabel: 0.0
- inputSmiles: "Cc1cc(-c2ncc(-c3cc(O)ccc3OC(F)(F)F)s2)c2ncc(OC(F)F)nc2c1"
  classLabel: 0.0
- inputSmiles: "COc1cnc2c(-c3ncc(-c4ccccc4C(F)F)s3)cc(C)cc2n1"
  classLabel: 0.0
- inputSmiles: "Cc1cc(-c2nc(C)c(-c3ccn[nH]3)s2)c2ncc(OC(F)F)nc2c1"
  classLabel: 1.0

###

Listed next: entries and their corresponding pIC50.
# testSystem: PAR4 (Homo sapiens, UniProt Q96RI0)
# Construct: expressed in transfected cells; host or cells: HEK293 PAR4 Clone 1.2A (BMS Arctic ID 383940)
# assayNotes: PAR4 FLIPR assay: calcium mobilization in PAR4-expressing HEK293 cells
# Assay type: cell-based
# Text: The FLIPR assay is an exemplary in vitro assay for measuring the activity of the PAR4 antagonists of the present invention. In this assay, intracellular calcium mobilization is induced in PAR4 expressing cells by a PAR4 agonist and calcium mobilization is monitored. HEK293 cells stably expressing PAR4 were generated by a standard method of transfection of human PAR4 (F2R23) cDNA expression vector and selected based on PAR4 protein expression or mRNA expression. […]
pIC50: −log10 of the molar value.

- compound: "C=Cc1csc(-c2cc(C)cc3nc(OC(F)F)cnc23)n1 [Example 8]"
  pIC50: 7.00
- compound: "Cc1cc(-c2ncc(-c3ccccc3C(F)(F)F)s2)c2ncc(OC(F)F)nc2c1 [Example 16]"
  pIC50: 6.96
- compound: "Cc1cc(-c2ncc(C3CCCCC3)s2)c2ncc(OC(F)F)nc2c1 [Example 17]"
  pIC50: 7.12
- compound: "Cc1cc(-c2ncc(-c3ccccn3)s2)c2ncc(OC(F)F)nc2c1 [Example 44]"
  pIC50: 7.10
- compound: "Cc1cc(-c2ncc(Cc3ccccc3)s2)c2ncc(OC(F)F)nc2c1 [Example 7]"
  pIC50: 7.02
